# Cytotoxicity IC50 HepG2 values compiled below
system: HepG2; test: Cytotoxic activity against mammalian cells in tissue culture (MTT); assay type: cell-based, human
# unit: µg/mL | format: bare number

1) C[C@@H]1[C@H](O)[C@@H](C)/C=C/C=C/CC/C=C/C=C/C=C/C=C/C(O[C@H]2O[C@H](C)[C@@H](O)[C@H](N)[C@@H]2O)CC2O[C@](O)(CC(O)C(O)CCC(O)CC(O)CC(O)CC(=O)O[C@H]1C)CC(O)C2C(=O)O (some centres unmarked)    24.9

// query Item "CCCN(CCC)[C@@H]1[C@H](O)[C@H](O[C@H]2/C=C/C=C/C=C/C=C/CC/C=C/C=C/[C@H](C)[C@@H](O)[C@@H](C)[C@H](C)OC(=O)C[C@H](O)C[C@H](O)C[C@H](O)CC[C@@H](O)[C@H](O)C[C@]3(O)C[C@H](O)[C@@H](C(=O)O)[C@H](C2)O3)O[C@H](C)[C@H]1O" has what recorded Cytotoxicity IC50 HepG2?
// result 82.9

* * *

test system: Candida tropicalis KKP 334; experiment: Antifungal activity in vitro, serial dilution in RPMI 1640; assay type: cell-based; conditions: Table 2A; RPMI 1640, pH 7.0
# Antifungal activity Candida tropicalis KKP 334 MIC values compiled below
# unit: µg/mL | format: bare number

Take a look at these entries with their results.
1. CC1OC(O[C@H]2/C=C/C=C/C=C/C=C/CC/C=C/C=C/[C@H](C)[C@@H](O)[C@@H](C)[C@H](C)OC(=O)C[C@H](O)C[C@H](O)C[C@H](O)CC[C@@H](O)[C@H](O)CC3(O)C[C@H](O)[C@@H](C(=O)O)[C@H](C2)O3)C(O)C(NC(=O)[C@H](N)CC(=O)OC(C)(C)C)C1O (stereo partly drawn)    4
2. CC1OC(O[C@H]2/C=C/C=C/C=C/C=C/CC/C=C/C=C/[C@H](C)[C@@H](O)[C@@H](C)[C@H](C)OC(=O)C[C@H](O)C[C@H](O)C[C@H](O)CC[C@@H](O)[C@H](O)CC3(O)C[C@H](O)[C@@H](C(=O)O)[C@H](C2)O3)C(O)C(NC2CC(=O)N(CCN3CCN(C)CC3)C2=O)C1O (stereo partly drawn)    8

# input for lookup
// query Item "C[C@@H]1[C@H](O)[C@@H](C)/C=C/C=C/CC/C=C/C=C/C=C/C=C/[C@H](O[C@@H]2O[C@H](C)[C@@H](O)[C@H](NC(=O)[C@H](N)COC(C)(C)C)[C@@H]2O)C[C@@H]2O[C@](O)(C[C@@H](O)C[C@@H](O)[C@H](O)CC[C@@H](O)C[C@@H](O)CC(=O)O[C@H]1C)C[C@H](O)[C@H]2C(=O)O" has what recorded Antifungal activity Candida tropicalis KKP 334 MIC?
// result 8

* * *

# MIC Candida albicans STY31 values compiled below
tested on: Candida albicans STY31; test: Antifungal activity towards resistant (MDR) strains; assay type: cell-based; details: 5674 mutant derivative, deletion of CDR1 and CDR2
Could you give the number and then its unit, please?

Take a look at these entries with their results.
1. CC1OC(O[C@H]2/C=C/C=C/C=C/C=C/CC/C=C/C=C/[C@H](C)[C@@H](O)[C@@H](C)[C@H](C)OC(=O)C[C@H](O)C[C@H](O)C[C@H](O)CC[C@@H](O)[C@H](O)CC3(O)C[C@H](O)[C@@H](C(=O)O)[C@H](C2)O3)C(O)C(NC(=O)[C@H](N)CCC(=O)OC(C)(C)C)C1O (stereo partly drawn)    32 µg/mL
2. C[C@@H]1[C@H](O)[C@@H](C)/C=C/C=C/CC/C=C/C=C/C=C/C=C/C(O[C@H]2O[C@H](C)[C@@H](O)[C@H](N)[C@@H]2O)CC2O[C@](O)(CC(O)C(O)CCC(O)CC(O)CC(O)CC(=O)O[C@H]1C)CC(O)C2C(=O)O (stereo partly drawn)    1 µg/mL

// query Item CC1OC(O[C@H]2/C=C/C=C/C=C/C=C/CC/C=C/C=C/[C@H](C)[C@@H](O)[C@@H](C)[C@H](C)OC(=O)C[C@H](O)C[C@H](O)C[C@H](O)CC[C@@H](O)[C@H](O)CC3(O)C[C@H](O)[C@@H](C(=O)O)[C@H](C2)O3)C(O)C(NC(=O)[C@H](N)CC(=O)OC(C)(C)C)C1O (stereo partly drawn) has what recorded MIC Candida albicans STY31?
// result 16 µg/mL

* * *

system: Candida tropicalis KKP 334; assay: Antifungal activity in vitro, serial dilution in RPMI 1640; format: cell-based; details: Table 2A; RPMI 1640, pH 7.0
# Antifungal activity Candida tropicalis KKP 334 MIC values compiled below
# unit: µg/mL | format: bare number

1. CC1OC(O[C@H]2/C=C/C=C/C=C/C=C/CC/C=C/C=C/[C@H](C)[C@@H](O)[C@@H](C)[C@H](C)OC(=O)C[C@H](O)C[C@H](O)C[C@H](O)CC[C@@H](O)[C@H](O)CC3(O)C[C@H](O)[C@@H](C(=O)O)[C@H](C2)O3)C(O)C(NC2CC(=O)N(CCN(C)C)C2=O)C1O (stereo partly drawn)    8
2. Cc1cccc(C)c1N1C(=O)CC(NC2C(O)C(C)OC(O[C@H]3/C=C/C=C/C=C/C=C/CC/C=C/C=C/[C@H](C)[C@@H](O)[C@@H](C)[C@H](C)OC(=O)C[C@H](O)C[C@H](O)C[C@H](O)CC[C@@H](O)[C@H](O)CC4(O)C[C@H](O)[C@@H](C(=O)O)[C@H](C3)O4)C2O)C1=O (stereo partly drawn)    8

# input for lookup
// query Item CNC(C)(C)C(=O)NC1C(O)C(C)OC(O[C@H]2/C=C/C=C/C=C/C=C/CC/C=C/C=C/[C@H](C)[C@@H](O)[C@@H](C)[C@H](C)OC(=O)C[C@H](O)C[C@H](O)C[C@H](O)CC[C@@H](O)[C@H](O)CC3(O)C[C@H](O)[C@@H](C(=O)O)[C@H](C2)O3)C1O (stereo partly drawn) has what recorded Antifungal activity Candida tropicalis KKP 334 MIC?
// result 8

* * *

system: LLC-PK1; test: Cytotoxic activity against mammalian cells in tissue culture (MTT); format: cell-based, pig; conditions: LLC-PK1, 120 h, MTT
readout: Cytotoxicity IC50 LLC-PK1

Take a look at these entries with their results.
1) CC1OC(O[C@H]2/C=C/C=C/C=C/C=C/CC/C=C/C=C/[C@H](C)[C@@H](O)[C@@H](C)[C@H](C)OC(=O)C[C@H](O)C[C@H](O)C[C@H](O)CC[C@@H](O)[C@H](O)CC3(O)C[C@H](O)[C@@H](C(=O)O)[C@H](C2)O3)C(O)C(NCc2ccccc2)C1O (stereo partly drawn)    >100 µg/mL
2) CCN(CC)[C@@H](Cc1ccccc1)C(=O)NC1C(O)C(C)OC(O[C@H]2/C=C/C=C/C=C/C=C/CC/C=C/C=C/[C@H](C)[C@@H](O)[C@@H](C)[C@H](C)OC(=O)C[C@H](O)C[C@H](O)C[C@H](O)CC[C@@H](O)[C@H](O)CC3(O)C[C@H](O)[C@@H](C(=O)O)[C@H](C2)O3)C1O (stereo partly drawn)    >100 µg/mL

// query Item CCN(CC)CCNC(=S)NC1C(O)C(C)OC(O[C@H]2/C=C/C=C/C=C/C=C/CC/C=C/C=C/[C@H](C)[C@@H](O)[C@@H](C)[C@H](C)OC(=O)C[C@H](O)C[C@H](O)C[C@H](O)CC[C@@H](O)[C@H](O)CC3(O)C[C@H](O)[C@@H](C(=O)O)[C@H](C2)O3)C1O (stereo partly drawn) has what recorded Cytotoxicity IC50 LLC-PK1?
// result >100 µg/mL

* * *

test system: CCRF-CEM; assay: Cytotoxic activity against mammalian cells in tissue culture (MTT); format: cell-based, human; details: CCRF-CEM, 120 h, MTT
# Cytotoxicity IC50 CCRF-CEM values compiled below

1. CC1OC(O[C@H]2/C=C/C=C/C=C/C=C/CC/C=C/C=C/[C@H](C)[C@@H](O)[C@@H](C)[C@H](C)OC(=O)C[C@H](O)C[C@H](O)C[C@H](O)CC[C@@H](O)[C@H](O)CC3(O)C[C@H](O)[C@@H](C(=O)O)[C@H](C2)O3)C(O)C(NC(=O)[C@@H](N)Cc2ccccc2)C1O (stereo partly shown)    >100 µg/mL
2. CC1OC(O[C@H]2/C=C/C=C/C=C/C=C/CC/C=C/C=C/[C@H](C)[C@@H](O)[C@@H](C)[C@H](C)OC(=O)C[C@H](O)C[C@H](O)C[C@H](O)CC[C@@H](O)[C@H](O)CC3(O)C[C@H](O)[C@@H](C(=O)O)[C@H](C2)O3)C(O)C(NC(=S)NCCCN(C)C)C1O (stereo partly shown)    >100 µg/mL
3. CC1OC(O[C@H]2/C=C/C=C/C=C/C=C/CC/C=C/C=C/[C@H](C)[C@@H](O)[C@@H](C)[C@H](C)OC(=O)C[C@H](O)C[C@H](O)C[C@H](O)CC[C@@H](O)[C@H](O)CC3(O)C[C@H](O)[C@@H](C(=O)O)[C@H](C2)O3)C(O)C(NCc2ccccc2)C1O (stereo partly shown)    91.9 ± 4.35 µg/mL

// query Item CC1OC(O[C@H]2/C=C/C=C/C=C/C=C/CC/C=C/C=C/[C@H](C)[C@@H](O)[C@@H](C)[C@H](C)OC(=O)C[C@H](O)C[C@H](O)C[C@H](O)CC[C@@H](O)[C@H](O)CC3(O)C[C@H](O)[C@@H](C(=O)O)[C@H](C2)O3)C(O)C(NC(=S)NCC(C)(C)CN(C)C)C1O (stereo partly shown) has what recorded Cytotoxicity IC50 CCRF-CEM?
// result >100 µg/mL
